Parameter: TP. Scope: all listed entries.
Species on record: Rattus norvegicus
test: Open TG-GATES - Regimen: Daily Repeat
Assay type: toxicity, organism-based, Sprague-Dawley
Set-up: regimen Daily Repeat, gender Male, age 6 weeks
experimental conditions: in vivo, po, 300 mg/kg, […], tissue Plasma, route gavage, dose level Middle, time 28 day
measured endpoint: TP (g/dL)

1) O=C(O)c1ccccc1Nc1ccccc1 [FENAMIC ACID]
6.4
2) CCCCNC(=O)NS(=O)(=O)c1ccc(C)cc1 [TOLBUTAMIDE]
6.1
3) CC(=O)[C@@]1(O)CC[C@H]2[C@@H]3C=C(Cl)C4=CC(=O)CC[C@]4(C)[C@H]3CC[C@@]21C [CHLORMADINONE]
6.3
4) CC(S)C(=O)NCC(=O)O (centres undefined) [TIOPRONIN]
6.1

----------
Species on record: Rattus norvegicus
test: Open TG-GATES - Regimen: Single
Type: toxicity, organism-based, Sprague-Dawley
Parameters: regimen Single, gender Male, age 6 weeks
experimental conditions: in vivo, po, 0 mg/kg, 6 h, tissue Plasma, route gavage, dose level Control
measured endpoint: IP (mg/dL)

1. CCCCNC(=O)NS(=O)(=O)c1ccc(C)cc1 [TOLBUTAMIDE]
9.5
2. O=C(O)c1ccccc1Nc1ccccc1
9.1
3. O=c1ccc2ccccc2o1
11.3
4. NS(=O)(=O)c1cc(C(=O)O)c(NCc2ccco2)cc1Cl [FUROSEMIDE]
9.7
5. CCN(CC)C(=S)SSC(=S)N(CC)CC
9.5
6. CN(C)CCCN1c2ccccc2Sc2ccc(Cl)cc21
9.4
7. CC(=O)[C@@]1(O)CC[C@H]2[C@@H]3C=C(Cl)C4=CC(=O)CC[C@]4(C)[C@H]3CC[C@@]21C
9.3
8. CCO
9.6
9. C=C[C@H]1C[N@@]2CC[C@H]1C[C@@H]2[C@@H](O)c1ccnc2ccc(OC)cc12
9.3
10. Nc1ccc(Cc2ccc(N)cc2)cc1
10
11. CC(S)C(=O)NCC(=O)O (stereo unspecified)
8.8

----------
Organism: Rattus norvegicus
test: Open TG-GATES - Regimen: Daily Repeat
Type: toxicity, organism-based, Sprague-Dawley
Parameters: regimen Daily Repeat, gender Male, age 6 weeks
experimental conditions: in vivo, po, 0 mg/kg, […], tissue Plasma, route gavage, dose level Control, time 7 day
Let's look at some molecules and their measured A/G.
measured endpoint: A/G

1) Nc1ccc(Cc2ccc(N)cc2)cc1
0.9
2) O=c1ccc2ccccc2o1
2.2
3) CC(S)C(=O)NCC(=O)O (centres undefined)
1.2
4) O=C(O)c1ccccc1Nc1ccccc1
0.9
5) CCCCNC(=O)NS(=O)(=O)c1ccc(C)cc1 [TOLBUTAMIDE]
0.9
6) CN(CCOc1ccc(CC2SC(=O)NC2=O)cc1)c1ccccn1.O=C(O)/C=C\C(=O)O (centres undefined) [ROSIGLITAZONE MALEATE]
2
7) CC(=O)[C@@]1(O)CC[C@H]2[C@@H]3C=C(Cl)C4=CC(=O)CC[C@]4(C)[C@H]3CC[C@@]21C
1.2
8) CCO
2.2
9) CN(C/C=C/C#CC(C)(C)C)Cc1cccc2ccccc12
1.5

----------
Species on record: Rattus norvegicus
test: Open TG-GATES - Regimen: Daily Repeat
Type: toxicity, organism-based, Sprague-Dawley
Design: regimen Daily Repeat, gender Male, age 6 weeks
experimental conditions: in vivo, po, 0 mg/kg, […], tissue Blood, route gavage, dose level Control, time 14 day
measured endpoint: MCV (fL)

1) O=C(O)c1ccccc1Nc1ccccc1
59.2
2) CC(=O)[C@@]1(O)CC[C@H]2[C@@H]3C=C(Cl)C4=CC(=O)CC[C@]4(C)[C@H]3CC[C@@]21C
59.5
3) NS(=O)(=O)c1cc(C(=O)O)c(NCc2ccco2)cc1Cl [FUROSEMIDE]
60.4
4) CC(S)C(=O)NCC(=O)O (stereo not given)
58.9
5) CN(CCOc1ccc(CC2SC(=O)NC2=O)cc1)c1ccccn1.O=C(O)/C=C\C(=O)O (stereo not given) [ROSIGLITAZONE MALEATE]
62.2
